# experimental-target: IA^d (Mus musculus, UniProt P01921+P04228)
# Sequence (P04228 24-256): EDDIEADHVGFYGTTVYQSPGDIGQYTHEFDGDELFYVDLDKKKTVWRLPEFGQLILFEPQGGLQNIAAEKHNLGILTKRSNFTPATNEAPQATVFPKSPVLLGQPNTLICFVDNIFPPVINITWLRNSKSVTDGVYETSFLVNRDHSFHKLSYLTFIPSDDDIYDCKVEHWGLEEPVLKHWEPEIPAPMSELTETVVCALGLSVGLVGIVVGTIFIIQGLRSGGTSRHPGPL
# Sequence (P01921 28-265): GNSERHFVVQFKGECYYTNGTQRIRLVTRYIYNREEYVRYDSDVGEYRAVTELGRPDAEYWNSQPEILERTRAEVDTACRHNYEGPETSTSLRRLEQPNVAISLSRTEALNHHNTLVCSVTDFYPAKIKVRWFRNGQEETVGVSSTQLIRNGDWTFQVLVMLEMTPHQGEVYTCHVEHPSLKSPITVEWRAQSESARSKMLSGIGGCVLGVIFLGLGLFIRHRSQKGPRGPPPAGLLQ
# procedure-text: Inhibition of binding of 125I-radiolabelled Ova 323-339 to purified IA^d (gel filtration competition assay)
# recorded-conditions: Table 7, good binders; concentration of the indicated polypeptide
Ends that are not written are not given here.
The reader will find reported IC50 values listed item by item below.
measured-endpoint: IC50 (µM)

INSERT INTO assay_data (seq_string, value) VALUES
  ('HNTNGVTAACSHE [Ha 130-142]', 9),
  ('FISEAIIHVLHSR [Myo 106-118]', 20),
  ('AHRVQLGPRSLQVLLIP [JF 39]', 25),
  ('SAESLKISQAV [Ova Site II]', 5);

Entry source: patent US5200320A
